system: PC-3M; test: Anticancer activity in human PC-3M cells expressing PTB/GFP fusion protein assessed as perinucleolar compartment disassembly and measured after 24 hrs by Hoechst 33342 staining based microscopic method; assay type: functional, cell-based; conditions: read-out: pIC50 (converted)
metric name: IC50

1) N=c1c2c(-c3ccccc3)c(-c3ccccc3)n(CCc3ccccc3)c2ncn1CC1CCOC1 (configuration not stated); 10.7 µM
2) N=c1c2c(-c3ccccc3)c(-c3ccccc3)n(Cc3ccccc3)c2ncn1CC1CCCO1 (configuration not stated); 9.33 µM
3) N=c1c2c(-c3ccccc3)c(-c3ccccc3)n(CC3CC3)c2ncn1C1CCOCC1; 0.832 µM

Req: Provide only the value of recorded IC50 for N=c1c2c(-c3ccccc3)c(-c3ccccc3)n(CCc3ccccc3)c2ncn1C[C@@H]1CCCC[C@H]1O (relative stereo)
Resp: 0.955 µM

Req: Provide only the value of recorded IC50 for COc1ccc(CCn2cnc3c(c(-c4ccccc4)c(-c4ccccc4)n3Cc3ccccc3)c2=N)cc1OC
Resp: 25.1 µM

* * *

test: Permeability of the compound at pH 7.4 incubated for 30 mins by UV plate reader based PAMPA assay; conditions: PAMPA, pH 7.4
Documented Papp at 0.5 h across a set of molecules
Field: numeric (×10⁻⁶ cm/s). Do not append units.

1. CN(C)CCCn1cnc2c(c(-c3ccccc3)c(-c3ccccc3)n2Cc2ccccc2)c1=N; 320
2. N=c1c2c3c(n(CCc4ccccc4)c2ncn1CCCO)CCCC3; 883

Proceeding to the next molecule to report its Papp at 0.5 h.
Req: Provide only the value of recorded Papp at 0.5 h for N=c1c2c(-c3ccccc3)c(-c3ccccc3)n(Cc3ccccc3)c2ncn1CC1COC1
Resp: 7.2

* * *

Documented permeability across a set of compounds
test: Permeability of the compound at pH 7.4 incubated for 30 mins by UV plate reader based PAMPA assay; details: pampa, pH 7.4, 0.5 h

Worked examples, 5 compounds total:
1. Cc1c(C)n(Cc2ccccc2)c2ncn(C3CCOCC3)c(=N)c12; 1683.3 10^-6 cm/s
2. N=c1c2c(-c3ccccc3)c(-c3ccccc3)n(Cc3ccccc3)c2ncn1CCNc1ccncc1; 445.1 10^-6 cm/s
3. N=c1c2c(-c3ccccc3)c(-c3ccccc3)n(CC3CCCCC3)c2ncn1CCCO; > 1000 10^-6 cm/s
4. N=c1c2c(-c3ccccc3)cn(Cc3ccccc3)c2ncn1Cc1ccco1; 1737 10^-6 cm/s
5. N=c1c2c(-c3ccccc3)c(-c3ccccc3)n(Cc3ccccc3)c2ncn1C[C@@H]1CCCC[C@H]1O (relative stereo); > 1000 10^-6 cm/s

Req: Provide only the value of recorded permeability for CCOC(CCCn1cnc2c(c(-c3ccccc3)c(-c3ccccc3)n2Cc2ccccc2)c1=N)OCC
Resp: > 1000 10^-6 cm/s

Req: Provide only the value of recorded permeability for N=c1c2c(-c3ccccc3)c(-c3ccccc3)n(Cc3ccccc3)c2ncn1CC1CCOC1 (centres undefined)
Resp: > 1000 10^-6 cm/s

Req: Provide only the value of recorded permeability for COc1ccc(Cn2c(-c3ccccc3)c(-c3ccccc3)c3c(=N)n(CC4CCOCC4)cnc32)cc1
Resp: 1266.09 10^-6 cm/s

Req: Provide only the value of recorded permeability for N=c1c2c(-c3ccccc3)c(-c3ccccc3)n(Cc3ccccc3)c2ncn1[C@H]1CC[C@@H](O)CC1
Resp: > 1000 10^-6 cm/s

* * *

assay: Permeability of the compound at pH 7.4 incubated for 30 mins by UV plate reader based PAMPA assay; settings: pampa, pH 7.4, 0.5 h
Documented permeability across a set of molecules

Worked examples, 8 molecules total:
1. N=c1c2c(-c3ccccc3)c(-c3ccccc3)n(Cc3ccccc3)c2ncn1CCN; 164.7 10^-6 cm/s
2. N=c1c2c(-c3ccccc3)c(-c3ccccc3)n(Cc3ccc(OC(F)(F)F)cc3)c2ncn1[C@H]1CC[C@@H](O)CC1; 1246.89 10^-6 cm/s
3. N=c1c2c(-c3ccccc3)c(-c3ccccc3)n(Cc3ccccc3)c2ncn1C1CCC(=O)CC1; > 1000 10^-6 cm/s
4. N=c1c2c(-c3ccccc3)cn(Cc3ccccc3)c2ncn1CCO; 1270.9 10^-6 cm/s
5. COc1ccc(Cn2c(-c3ccccc3)c(-c3ccccc3)c3c(=N)n(CCCO)cnc32)cc1; > 1000 10^-6 cm/s
6. N=c1c2c(-c3ccccc3)c(-c3ccccc3)n(Cc3ccc(S(N)(=O)=O)cc3)c2ncn1CCCO; < 1 10^-6 cm/s
7. COc1ccc(Cn2c(-c3ccccc3)c(-c3ccccc3)c3c(=N)n([C@H]4CC[C@H](O)CC4)cnc32)cc1; > 1000 10^-6 cm/s
8. COCCn1cnc2c(c(-c3ccccc3)c(-c3ccccc3)n2Cc2ccccc2)c1=N; > 1000 10^-6 cm/s

Req: Provide only the value of recorded permeability for N=c1c2c(-c3ccccc3)c(-c3ccccc3)n(Cc3ccccc3)c2ncn1[C@H](CO)Cc1ccccc1
Resp: < 1 10^-6 cm/s

* * *

assay: Permeability of the compound at pH 7.4 incubated for 30 mins by UV plate reader based PAMPA assay; conditions: pampa, pH 7.4, 0.5 h
metric name: permeability

Worked examples, 3 compounds total:
1) N=c1c2c(-c3ccccc3)c(-c3ccccc3)n(CCc3ccccc3)c2ncn1C1CCOCC1; > 1000 10^-6 cm/s
2) N=c1c2c(-c3ccccc3)c(-c3ccccc3)n(CCc3ccccc3)c2ncn1[C@H]1CC[C@H](O)CC1; > 1000 10^-6 cm/s
3) N=c1c2c(-c3ccccc3)c(-c3ccccc3)n(CC3CC3)c2ncn1CC1CCOCC1; > 1000 10^-6 cm/s

Req: Provide only the value of recorded permeability for N=c1c2c(-c3ccccc3)c(-c3ccccc3)n(Cc3ccccc3)c2ncn1CC1CCCO1 (stereo not given)
Resp: > 1000 10^-6 cm/s

Req: Provide only the value of recorded permeability for N=c1c2c(-c3ccccc3)c(-c3ccccc3)n(CC3CC3)c2ncn1CCCO
Resp: > 1000 10^-6 cm/s

Req: Provide only the value of recorded permeability for N#Cc1c(-c2ccccc2)c(-c2ccccc2)n(Cc2ccccc2)c1N
Resp: 62 10^-6 cm/s

Req: Provide only the value of recorded permeability for N=c1c2c(-c3ccccc3)c(-c3ccccc3)n(Cc3ccccc3)c2ncn1CC1CCOCC1
Resp: > 1000 10^-6 cm/s

Req: Provide only the value of recorded permeability for COc1ccc(CCn2cnc3c(c(-c4ccccc4)cn3Cc3ccccc3)c2=N)cc1OC
Resp: > 1000 10^-6 cm/s

Req: Provide only the value of recorded permeability for N=c1c2c(-c3ccccc3)c(-c3ccccc3)n(Cc3ccc(OC(F)(F)F)cc3)c2ncn1CCCO
Resp: > 1000 10^-6 cm/s

* * *

Documented permeability across a set of compounds
assay: Permeability of the compound at pH 7.4 incubated for 30 mins by UV plate reader based PAMPA assay; details: pampa, pH 7.4, 0.5 h

Worked examples, 4 compounds total:
1. Cc1c(C)n(Cc2ccccc2)c2ncn(CCCO)c(=N)c12; 609.3 10^-6 cm/s
2. N=c1c2c3c(n(CCc4ccccc4)c2ncn1[C@H]1CC[C@H](O)CC1)CCCC3; 204.6 10^-6 cm/s
3. COc1ccc(CCn2cnc3c(c(-c4ccccc4)c(-c4ccccc4)n3Cc3ccccc3)c2=N)cc1OC; 1196.9 10^-6 cm/s
4. COc1ccc(Cn2c(-c3ccccc3)c(-c3ccccc3)c3c(=N)n(CC4CCCO4)cnc32)cc1 (stereo not given); > 1000 10^-6 cm/s

Proceeding to the next compound to report its permeability.
Req: Provide only the value of recorded permeability for COc1ccc(-c2c(-c3ccc(OC)cc3)n(Cc3ccccc3)c3ncn([C@H]4CC[C@H](O)CC4)c(=N)c23)cc1
Resp: 196 10^-6 cm/s

* * *

Documented selectivity ratio across a set of compounds
assay: in vitro; settings: human, PC-3M cells expressing PTB/GFP fusion protein

1) CC[C@@]1(O)C(=O)OCc2c1cc1n(c2=O)Cc2cc3ccccc3nc2-1 [CAMPTOTHECIN]; 2.5

Proceeding to the next compound to report its selectivity ratio.
Req: Provide only the value of recorded selectivity ratio for N=c1c2c(-c3ccccc3)c(-c3ccccc3)n(Cc3ccccc3)c2ncn1[C@H]1CC[C@H](O)CC1 [ML-246]
Resp: 38.3

* * *

Documented pIC50 across a set of molecules
test: Cytotoxicity against human PC-3M cells expressing PTB/GFP fusion protein assessed as reduction in ATP level and measured after 24 to 48 hrs by ATPlite luminescence assay; type: toxicity, cell-based
By convention, pIC50 is the negative base-10 log of a molar concentration.

1) CC[C@@]1(O)C(=O)OCc2c1cc1n(c2=O)Cc2cc3ccccc3nc2-1; 6.32
2) N=c1c2c(-c3ccccc3)c(-c3ccccc3)n(Cc3ccccc3)c2ncn1[C@H]1CC[C@H](O)CC1; 5.12

Proceeding to the next molecule to report its pIC50.
Req: Provide only the value of recorded pIC50 for COc1cccc2c1C(=O)c1c(O)c3c(c(O)c1C2=O)C[C@@](O)(C(=O)CO)C[C@@H]3O[C@H]1C[C@H](N)[C@H](O)[C@H](C)O1
Resp: 6.18

Every entry's value here was drawn from ChEMBL document CHEMBL5154945.
